- ASSAY_SYSTEM: GLS1 (Homo sapiens (Human))
- Sequence (O94925 63-669): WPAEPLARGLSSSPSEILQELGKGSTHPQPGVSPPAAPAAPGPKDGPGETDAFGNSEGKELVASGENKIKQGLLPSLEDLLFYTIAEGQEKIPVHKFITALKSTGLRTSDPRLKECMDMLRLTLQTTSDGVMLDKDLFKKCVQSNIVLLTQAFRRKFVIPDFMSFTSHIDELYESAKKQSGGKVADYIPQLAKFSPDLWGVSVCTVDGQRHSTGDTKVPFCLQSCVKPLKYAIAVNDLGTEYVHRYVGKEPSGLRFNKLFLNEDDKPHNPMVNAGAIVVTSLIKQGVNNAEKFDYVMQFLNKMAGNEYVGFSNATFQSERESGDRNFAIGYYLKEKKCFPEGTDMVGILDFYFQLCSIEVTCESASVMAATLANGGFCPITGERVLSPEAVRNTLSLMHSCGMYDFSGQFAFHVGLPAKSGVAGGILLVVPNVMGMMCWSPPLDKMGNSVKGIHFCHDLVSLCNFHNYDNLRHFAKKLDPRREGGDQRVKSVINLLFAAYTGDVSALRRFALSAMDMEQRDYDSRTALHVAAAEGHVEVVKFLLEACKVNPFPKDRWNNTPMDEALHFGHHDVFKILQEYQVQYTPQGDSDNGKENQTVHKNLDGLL
- EXPERIMENT: GLS Enzyme Potency Assay (Glutamate Oxidase/AmplexRed coupled assay)
- Format: biochemical
pIC50: −log10 of the molar value.
PROPERTY_LABEL: pIC50

* CN(C)[C@@H](C(=O)Nc1nnc(N[C@@H]2CCN(c3cccnn3)C2)s1)c1cccc(OC(F)(F)F)c1 (single isomer, unassigned) | 6.28
* CN(C)[C@H](C(=O)Nc1nnc(N[C@@H]2CCN(c3cccnn3)C2)s1)c1cccc(C#N)c1 | 6.65
* O=C(Nc1nnc(N[C@@H]2CCN(c3ccc(F)nn3)C2)s1)[C@@H](c1cccc(OC(F)(F)F)c1)N1CCC1 | 6.61
* CN(C)[C@@H](C(=O)Nc1nnc(N[C@@H]2CCN(c3cccnn3)C2)s1)c1cccc(OC(F)F)c1 | 7.28
* O=C(Nc1nnc(N[C@@H]2CCN(c3cccnn3)C2)s1)[C@@H](c1ccc(F)c(OC(F)(F)F)c1)N1CCC1 (single isomer, unassigned) | 6.88
* O=C(Nc1nnc(N[C@@H]2CCN(c3cccnn3)C2)s1)[C@@H](c1cccc(OC(F)(F)F)c1)N1CCC1 | 6.99
* COc1cccc([C@H](C(=O)Nc2nnc(N[C@@H]3CCN(c4cccnn4)C3)s2)N2CCC2)c1 (single isomer, unassigned) | 6.03
* CN1CCc2ccccc2[C@@H]1C(=O)Nc1nnc(N[C@@H]2CCN(c3cccnn3)C2)s1 | 6.71
